- Test system: Staphylococcus aureus Smith strain
- Method Summary: MIC for Staphylococcus aureus Smith strain
- Type: cell-based
- Conditions: Smith strain, regular bouillon medium, 37° C. overnight, turbidity, read-out: MIC Straphyrococcus aureus Smith
Decide using MIC alone. Strictly below 4 µg/mL: Yes. Equal to or above 4 µg/mL: No.

CCCCCCCCCC(O)=C1C(=O)Nc2ccccc21 :: No

For this molecule, is MIC lower than 4 µg/mL? `CCCCCCCCNC(=O)c1c(O)c2cc(F)ccc2oc1=O`
No

For this molecule, is MIC lower than 4 µg/mL? `CCCCCCCCCCOCC(O)=C1C(=O)N(C(=O)OC(C)(C)C)c2cc(Cl)ccc21`
No

For this molecule, is MIC lower than 4 µg/mL? `CCCCCCCCCCOCC(O)=C1C(=O)N(C(=O)Nc2ccc(Br)cc2)c2ccccc21`
No

For this molecule, is MIC lower than 4 µg/mL? `CCCCCCCCCCCCNC(=O)c1c(O)c2ccccc2oc1=O`
Yes

For this molecule, is MIC lower than 4 µg/mL? `CCCCCCCCCCSCC(O)=C1C(=O)N(C(C)=O)c2ccc(Br)cc21`
Yes

For this molecule, is MIC lower than 4 µg/mL? `CCCCCCCCCCOCC(=O)c1c(O)c2cc(F)ccc2oc1=O`
No

For this molecule, is MIC lower than 4 µg/mL? CCCCCCCCCCOC(C)C(O)=C1C(=O)N(C(=O)Nc2ccccc2)c2ccccc21 (stereo not drawn)
Yes
